target: T1, PCSK9-His (UniProt Q8NBP7 31-692); assay: ELISA, PCSK9-His coated, complete antibody titrated, anti-human IgG-HRP
T1 construct: also called antigen PCSK9-His; Proprotein Convertase Subtilisin/Kexin Type 9; not shown: His tag
T1 sequence (Q8NBP7 31-692 limits assumed): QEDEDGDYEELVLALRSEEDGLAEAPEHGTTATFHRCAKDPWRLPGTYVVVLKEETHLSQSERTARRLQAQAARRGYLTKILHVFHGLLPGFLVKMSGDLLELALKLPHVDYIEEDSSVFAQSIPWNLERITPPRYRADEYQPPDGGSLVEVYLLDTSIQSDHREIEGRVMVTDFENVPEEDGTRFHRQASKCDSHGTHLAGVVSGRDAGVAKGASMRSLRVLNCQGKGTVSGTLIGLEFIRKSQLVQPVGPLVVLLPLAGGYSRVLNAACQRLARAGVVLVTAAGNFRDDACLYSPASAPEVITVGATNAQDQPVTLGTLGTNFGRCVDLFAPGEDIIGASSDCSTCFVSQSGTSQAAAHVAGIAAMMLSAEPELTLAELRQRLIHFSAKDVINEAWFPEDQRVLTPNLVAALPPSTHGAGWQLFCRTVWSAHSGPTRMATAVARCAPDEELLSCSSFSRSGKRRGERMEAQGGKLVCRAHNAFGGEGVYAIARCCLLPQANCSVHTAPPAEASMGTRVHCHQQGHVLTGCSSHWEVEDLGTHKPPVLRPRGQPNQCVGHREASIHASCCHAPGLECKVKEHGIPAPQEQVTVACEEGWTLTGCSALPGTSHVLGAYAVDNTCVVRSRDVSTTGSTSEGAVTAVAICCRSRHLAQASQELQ
The reader will find reported EC50 values listed item by item below.
Respond with the bare value in µg/mL.

Reference set (4 entries):
DFSK9-12 complete antibody (antibody, V domains shown) VH: QVQLVQSGAEVKKPGASVKVSCKASGYTVTSYGISWVRQAPGQGLEWMGWLSFYNGNTNYAQKLQGRGTMTTDPSTSTAYMELRSLRSDDTAVYYCARGYSLDVWGQGTTVTVSS VL: DIQMTQSPSSLSASVGDRVTITCRASQSVRNWLDWYQQKPGKAPKLLIYGASTLESGVPSRFSGSGSGTDFTLTISSLQPEDFATYYCQQDNDIPLTFGQGTKVEIK :: 0.0646
DFSK9-19 complete antibody (antibody, V domains shown) VH: QVQLVQSGAEVKKPGASVKVSCKASGYSLTSYGISWVRQAPGQGLEWMGWVTFYNGNTNYAQKLQGRGTMTTDPSTSTAYMELRSLRSDDTAVYYCARGFGLSVWGQGTTVTVSS VL: DIQMTQSPSSLSASVGDRVTITCRASQNVNNWLNWYQQKPGKAPKLLIYAASTRETGVPSRFSGSGSGTDFTLTISSLQPEDFATYYCQQDNDMPLTFGQGTKVEIK :: 0.0832
DFSK9-14 complete antibody (antibody, V domains shown) VH: QVQLVQSGAEVKKPGASVKVSCKASGYSLTSYGISWVRQAPGQGLEWMGWVSFYNGQTNYAQKLQGRGTMTTDPSTSTAYMELRSLRSDDTAVYYCARGYGMSIWGQGTTVTVSS VL: DIQMTQSPSSLSASVGDRVTITCRASQNINSWLNWYQQKPGKAPKLLIYGASSRQSGVPSRFSGSGSGTDFTLTISSLQPEDFATYYCQQWFDVPTTFGQGTKVEIK :: 0.0422
DFSK9-18 complete antibody (antibody, V domains shown) VH: QVQLVQSGAEVKKPGASVKVSCKASGYTVTSYGISWVRQAPGQGLEWMGWVSFYNGNSNYAQKLQGRGTMTTDPSTSTAYMELRSLRSDDTAVYYCARGYSLDVWGQGTTVTVSS VL: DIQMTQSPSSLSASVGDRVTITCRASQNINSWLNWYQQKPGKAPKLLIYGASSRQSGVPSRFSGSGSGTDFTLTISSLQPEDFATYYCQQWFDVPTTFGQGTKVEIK :: 0.0339

Looking up DFSK9-15 complete antibody (antibody, V domains shown) VH: QVQLVQSGAEVKKPGASVKVSCKASGYTVTSYGISWVRQAPGQGLEWMGWVSFYNGQTNYAQKLQGRGTMTTDPSTSTAYMELRSLRSDDTAVYYCARGYSLDVWGQGTTVTVSS VL: DIQMTQSPSSLSASVGDRVTITCRASQNINNWLNWYQQKPGKAPKLLIYGASTRPTGVPSRFSGSGSGTDFTLTISSLQPEDFATYYCQQWDDTPNTFGQGTKVEIK , I found its EC50 recorded as 0.0397
